Field: Maximal Response (pg/mL) IFN. Provide a value for each of the compounds that follow.
Test system: interferon (α) (IFN-α)
experiment.summary: Cytokine induction in human cells: IFN-α secreted by PBMC into culture media (ELISA)
Format: cell-based
applied.conditions: Table 10; maximal response in dose response curve; * = below experimental background level; median
Give bare numbers, in pg/mL.

Consider the following illustrative entries.
Cc1cccc(-c2ccc3c(c2)nc(N)c2nc(CO)n(CC(C)(C)O)c23)c1 87
CC(C)(O)Cn1c(CO)nc2c(N)nc3cc(-c4cncc(CO)c4)ccc3c21 4357
CC(C)C(=O)NCCCCn1c(CO)nc2c(N)nc3cc(-c4cccnc4)ccc3c21 5880
COCCc1nc2c(N)nc3cc(-c4cccnc4)ccc3c2n1CC(C)C 1199
CCCc1nc2c(N)nc3cc(-c4cccnc4)ccc3c2n1CCCCNC(=O)NC1CCCC1 649
CCc1nc2c(N)nc3cc(-c4cccnc4)ccc3c2n1CC(C)(C)O 1652
CCCc1nc2c(N)nc3cc(-c4cccnc4)ccc3c2n1CCCCNC(=O)C(C)C 1610
CCOCc1nc2c(N)nc3cc(-c4cccnc4)ccc3c2n1CCCCNC(=O)NC1CCCC1 925

// input: 3 compounds below; output: Maximal Response (pg/mL) IFN for each
1. Nc1nc2cc(-c3cncc(CO)c3)ccc2c2c1nc(CO)n2CC1CCCCC1
2. CCCNC(=O)NCCCCn1c(CO)nc2c(N)nc3cc(-c4cccnc4)ccc3c21
3. CCCc1nc2c(N)nc3cc(-c4cccnc4)ccc3c2n1CC(C)(C)O

1087
5089
597
